test: Half life period at an intravenous dose of 5.2 mg/kg in rat; type: ADME, organism-based; set-up: dose 5.2 mg/kg, route intravenous; settings: in vivo
measured-parameter: half-life (h)
Numbers only, in h.

Name the recorded half-life for COc1ccc(N(C(=O)CN2C(=O)C(C)(Cc3n[nH]c4ccccc34)C(=O)N(c3ccccc3)c3ccccc32)C(C)C)cc1 (stereo unspecified) .
3.9

* * *

experiment: Half life period at an intravenous dose of 6.5 mg/kg in rat; assay type: ADME, organism-based; parameters: dose 6.5 mg/kg, route intravenous; conditions: in vivo
measured-parameter: half-life (h)
Give bare numbers, in h.

Name the recorded half-life for COc1ccc(N(C(=O)CN2C(=O)C(C)(Cc3nn(C)c4ccccc34)C(=O)N(c3ccccc3)c3ccccc32)C(C)C)cc1 (stereo unspecified) .
7.5

* * *

Would you mind telling me the reported Cmax of each entry?
test: Maximum concentration at an peroral dose of 6.2 mg/kg in rat; format: ADME, organism-based; design: dose 6.2 mg/kg, route oral; settings: in vivo, po
Numbers only, in ng/mL.

{"compound": "COc1ccc(N(C(=O)CN2C(=O)C(Cc3n[nH]c4ccccc34)C(=O)N(c3ccccc3)c3ccccc32)C(C)C)cc1 (configuration not stated)", "observed": 20}

Name the recorded Cmax for COc1ccc(N(C(=O)CN2C(=O)C(C)(Cc3nn(C)c4ccccc34)C(=O)N(c3ccccc3)c3ccccc32)C(C)C)cc1 (configuration not stated) .
20

* * *

species on record: Cavia porcellus; test: In vitro functional agonist activity in the isolated guinea pig gall bladder, concentration at which 50% of the maximal contraction observed was reported.; conditions: read-out: ED50 (the source's name)
Would you mind telling me the reported log10 of EC50 of each entry?
Please note: log10 values; quantity EC50; unit nM.

Illustrative cases are given below, each with its answer.
{"molecule": "O=C1C(Cc2n[nH]c3ccccc23)C(=O)N(c2ccccc2)c2ccccc2N1CC(=O)N(c1ccccc1)C1CC1 (stereo not drawn)", "log10 of EC50": 1.30}
{"molecule": "COc1ccc(N(C(=O)CN2C(=O)C(Cc3n[nH]c4cccc(F)c34)C(=O)N(c3ccccc3)c3ccccc32)C(C)C)cc1 (stereo not drawn)", "log10 of EC50": 1.85}
{"molecule": "COc1ccc(N(C(=O)CN2C(=O)C(C)(Cc3nn(C)c4ccccc34)C(=O)N(c3ccccc3)c3ccccc32)C(C)C)cc1 (stereo not drawn)", "log10 of EC50": 2.38}
{"molecule": "CC(C)N(C(=O)CN1C(=O)C(Cc2n[nH]c3ccccc23)C(=O)N(c2ccccc2)c2ccccc21)c1ccc(F)cc1 (stereo not drawn)", "log10 of EC50": 1.78}
{"molecule": "COc1ccc(N(C(=O)CN2C(=O)C(Cc3n[nH]c4ccccc34)(OC)C(=O)N(c3ccccc3)c3ccccc32)C(C)C)cc1 (stereo not drawn)", "log10 of EC50": 1.85}

Required: log10 of EC50, one value per molecule below.
1. COc1ccc(N(C(=O)CN2C(=O)C(Cc3n[nH]c4cc(F)ccc34)C(=O)N(c3ccccc3)c3ccccc32)C(C)C)cc1 (stereo not drawn)
2. CC(C)N(C(=O)CN1C(=O)C(Cc2n[nH]c3ccccc23)C(=O)N(c2ccccc2)c2ccccc21)c1ccc2c(c1)OCO2 (stereo not drawn)
3. COc1ccc(N(C(=O)CN2C(=O)C(Cc3[nH]nc4c3CCCC4)C(=O)N(c3ccccc3)c3ccccc32)C(C)C)cc1 (stereo not drawn)
4. COc1ccc(N(C(=O)CN2C(=O)C(Cc3n[nH]c4ccccc34)C(=O)N(c3ccccc3)c3ccccc32)C2CCCC2)cc1 (stereo not drawn)
5. COc1ccccc1N(C(=O)CN1C(=O)C(Cc2n[nH]c3ccccc23)C(=O)N(c2ccccc2)c2ccccc21)C(C)C (stereo not drawn)

1.60
1.30
2.48
1.60
2.92

* * *

assay: Maximum concentration at an intraduodenal dose of 6.6 mg/kg in rat; format: ADME, organism-based; parameters: dose 6.6 mg/kg, route intraduodenal; conditions: in vivo
measured-parameter: Cmax

Name the recorded Cmax for COc1ccc(N(C(=O)CN2C(=O)C(Cc3n[nH]c4ccccc34)C(=O)N(c3ccccc3)c3ccccc32)C(C)C)cc1 (stereo unspecified) .
0.193 µg/mL

* * *

experiment: Half life period at an intravenous dose of 6.3 mg/kg in rat; format: ADME, organism-based; design: dose 6.3 mg/kg, route intravenous; conditions: in vivo
measured-parameter: half-life (h)
One number for each entry, in h.

Name the recorded half-life for COc1ccc(N(C(=O)CN2C(=O)C(Cc3n[nH]c4ccccc34)C(=O)N(c3ccccc3)c3ccccc32)C(C)C)cc1 (stereo unspecified) .
2.1

* * *

assay: Oral bioavailability in Long-Evans rats at an peroral dose of 6.2 mg/kg; type: ADME, organism-based; settings: rat, in vivo
measured-parameter: bioavailability (%)
Give bare numbers, in %.

Name the recorded bioavailability for COc1ccc(N(C(=O)CN2C(=O)C(Cc3n[nH]c4ccccc34)C(=O)N(c3ccccc3)c3ccccc32)C(C)C)cc1 (stereo unspecified) .
8

* * *

experiment: Total body clearance at an intravenous dose of 6.3 mg/kg in rat; assay type: ADME, organism-based; set-up: dose 6.3 mg/kg, route intravenous; conditions: in vivo
measured-parameter: clearance (mL/min/kg)
One number for each entry, in mL/min/kg.

Name the recorded clearance for COc1ccc(N(C(=O)CN2C(=O)C(Cc3n[nH]c4ccccc34)C(=O)N(c3ccccc3)c3ccccc32)C(C)C)cc1 (stereo unspecified) .
38

* * *

assay: Oral bioavailability in Long-Evans rats at an intraduodenal dose of 6.6 mg/kg; format: ADME, organism-based; settings: rat, in vivo, other: intraduodenal
measured-parameter: bioavailability (%)
Give bare numbers, in %.

Name the recorded bioavailability for COc1ccc(N(C(=O)CN2C(=O)C(Cc3n[nH]c4ccccc34)C(=O)N(c3ccccc3)c3ccccc32)C(C)C)cc1 (stereo unspecified) .
16

* * *

Biological target: Gastrin/cholecystokinin type B receptor (Homo sapiens, UniProt P32239)
Sequence (P32239 whole entry): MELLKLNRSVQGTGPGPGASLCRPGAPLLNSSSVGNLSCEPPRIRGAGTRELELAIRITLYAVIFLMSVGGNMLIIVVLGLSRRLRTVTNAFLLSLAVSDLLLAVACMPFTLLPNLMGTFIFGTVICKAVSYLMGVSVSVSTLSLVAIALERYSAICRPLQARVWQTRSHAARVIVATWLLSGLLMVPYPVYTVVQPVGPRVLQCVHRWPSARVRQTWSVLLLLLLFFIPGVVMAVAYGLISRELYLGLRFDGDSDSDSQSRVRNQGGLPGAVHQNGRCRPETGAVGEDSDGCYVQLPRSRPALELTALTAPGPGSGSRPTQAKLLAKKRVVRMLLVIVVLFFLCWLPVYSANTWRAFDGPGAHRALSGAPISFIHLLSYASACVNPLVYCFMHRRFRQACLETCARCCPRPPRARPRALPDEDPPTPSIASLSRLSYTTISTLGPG
pIC50: −log10 of the molar value.
Binary classification by pIC50, with 6 as an inclusive lower bound for rule met; all other cases are rule not met.

Some entries whose results are on file:
{"molecule": "COc1ccc(N(C(=O)CN2C(=O)C(Cc3c[nH]c4ccccc34)(OC)C(=O)N(c3ccccc3)c3ccccc32)C(C)C)cc1 (stereo unspecified)", "class-name": "rule not met"}
{"molecule": "COc1ccc(N(C(=O)CN2C(=O)C(Cc3n[nH]c4ccccc34)(OC)C(=O)N(c3ccccc3)c3ccccc32)C(C)C)cc1 (stereo unspecified)", "class-name": "rule not met"}
{"molecule": "COc1ccccc1N(C(=O)CN1C(=O)C(Cc2n[nH]c3ccccc23)C(=O)N(c2ccccc2)c2ccccc21)C(C)C (stereo unspecified)", "class-name": "rule met"}
{"molecule": "COc1ccc(N(C(=O)CN2C(=O)C(Cc3n[nH]c4cc(F)ccc34)C(=O)N(c3ccccc3)c3ccccc32)C(C)C)cc1 (stereo unspecified)", "class-name": "rule met"}
{"molecule": "COc1ccc(N(C(=O)CN2C(=O)C(Cc3noc4ccccc34)C(=O)N(c3ccccc3)c3ccccc32)C(C)C)cc1 (stereo unspecified)", "class-name": "rule not met"}

Is reported pIC50 greater than or equal to 6 here: COc1ccc(N(C(=O)CN2C(=O)C(Cc3[nH]nc4c3CCCC4)C(=O)N(c3ccccc3)c3ccccc32)C(C)C)cc1 (stereo unspecified)
rule not met

# repeat for COc1ccc(N(C(=O)CN2C(=O)C(Cc3n[nH]c4ncccc34)C(=O)N(c3ccccc3)c3ccccc32)C(C)C)cc1 (stereo unspecified)
rule not met

# repeat for COc1ccc(N(C(=O)CN2C(=O)C(Cc3n[nH]c4cccc(F)c34)C(=O)N(c3ccccc3)c3ccccc32)C(C)C)cc1 (stereo unspecified)
rule not met

# repeat for CC(C)N(C(=O)CN1C(=O)C(Cc2n[nH]c3ccccc23)C(=O)N(c2ccccc2)c2ccccc21)c1ccc(C(F)(F)F)cc1 (stereo unspecified)
rule not met

* * *

test: Maximum concentration at an intravenous dose of 6.5 mg/kg in rat; format: ADME, organism-based; design: dose 6.5 mg/kg, route intravenous; conditions: in vivo
measured-parameter: Cmax
Field: value (include unit after the number)

Name the recorded Cmax for COc1ccc(N(C(=O)CN2C(=O)C(C)(Cc3nn(C)c4ccccc34)C(=O)N(c3ccccc3)c3ccccc32)C(C)C)cc1 (stereo unspecified) .
3270 ng/mL
